Experiment: small molecules captured by biotinylated probe aFGF10 – biochemical, small-molecule microarray, fluorescence 635/667, stem cell growth factor project, primary screen (AID 1071);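 also: score merges 667 nm spot intensity and signal to noise from triplicate slides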
Details: higher = more signal
assay metric: composite z-score
Please respond with just the number, no unit label.

Below are worked cases with known answers.
-- ask Name the recorded composite z-score for C=CCOC(=O)[C@H]1[C@@H]2C(=O)O[C@@H](c3ccccc3)[C@@H](c3ccccc3)N2[C@@H](c2ccc(OCCOC(=O)[C@H]3C[C@H]4C(=O)N[C@@H](CCCC[N+](C)(C)C)C(=O)N4[C@H]3c3ccc(O)cc3)cc2)[C@]12C(=O)Nc1ccccc12 .
-- reply 0.276

-- ask # query: composite z-score of entry [N-]=[N+]=NCc1ccccc1C[C@@]1(C(=O)NCc2ccccc2)N=C(c2ccc(OCCCO)cc2)O[C@@H]1c1ccccc1CN=[N+]=[N-]
-- reply 0.809

-- ask Entry under review: CN(C)CCCCCCNC(=O)[C@@H]1C[C@@H]2C(=O)N[C@@H](Cc3ccccc3)C(=O)N2[C@@H]1c1cccc(OCCO)c1 . Reported composite z-score?
-- reply 0.215

New cases:
-- ask # lookup: composite z-score of CC(C)N1C(=O)c2ccccc2[C@](C)(C(=O)NCCCN(C)C)[C@@H]1c1ccc(CO)cc1
-- reply -0.231
